STUDY_SYSTEM: PDGF receptor (Rattus norvegicus)
Construct: cultured rat mesangial cells which are known to have the PDGF receptor; endogenous in cells; host or cells: primary mesangial cells cultured from glomeruli of Wistar-Kyoto rats (Charles River Japan), more than 5 passages
TEST_DESCRIPTION: PDGF receptor autophosphorylation inhibition in cultured rat mesangial cells
Type: cell-based
CONDITION_CONTEXT: PDGF-BB 50 ng/ml
MEASURED_QUANTITY: IC50 (nM)

// solved cases for IC50 follow
[[record]]
compound = "COc1cc2nccc(Oc3ccc(NC(=O)Nc4ccc(Cl)cc4N)cc3)c2cc1OC"
study_system = "PDGF receptor (Rattus norvegicus)"
measured_quantity = "IC50"
units_symbol = "nM"
result_value = 5

[[record]]
compound = "COc1cc2nccc(Oc3ccc(NC(=O)NC(C)C)cc3)c2cc1OC"
study_system = "PDGF receptor (Rattus norvegicus)"
measured_quantity = "IC50"
units_symbol = "nM"
result_value = 43

[[record]]
compound = "COc1cc2nccc(Oc3ccc(NC(=O)Nc4ccccc4O)cc3)c2cc1OC"
study_system = "PDGF receptor (Rattus norvegicus)"
measured_quantity = "IC50"
units_symbol = "nM"
result_value = 12

[[record]]
compound = "COCCCNC(=O)Nc1ccc(Oc2ccnc3cc(OC)c(OC)cc23)cc1"
study_system = "PDGF receptor (Rattus norvegicus)"
measured_quantity = "IC50"
units_symbol = "nM"
result_value = 6

[[record]]
compound = "COc1cc2nccc(Oc3ccc(NC(=O)Nc4ccccc4-c4ccccc4)cc3)c2cc1OC"
study_system = "PDGF receptor (Rattus norvegicus)"
measured_quantity = "IC50"
units_symbol = "nM"
result_value = 6

[[record]]
compound = "COc1cc2nccc(Oc3ccc(NC(=O)Nc4ccc(Oc5ccccc5)cc4)cc3)c2cc1OC"
study_system = "PDGF receptor (Rattus norvegicus)"
measured_quantity = "IC50"
units_symbol = "nM"
result_value = 67

[[record]]
compound = "COc1cc2nccc(Oc3ccc(NC(=O)NC(C)c4cccc5ccccc45)cc3)c2cc1OC (centres unmarked)"
study_system = "PDGF receptor (Rattus norvegicus)"
measured_quantity = "IC50"
units_symbol = "nM"
result_value = 19

[[record]]
compound = "COc1cc2nccc(Oc3ccc(NC(=O)c4ccc(C(C)=O)cc4)cc3)c2cc1OC"
study_system = "PDGF receptor (Rattus norvegicus)"
measured_quantity = "IC50"
units_symbol = "nM"
result_value = 440

[[record]]
compound = "COc1cc2nccc(Oc3ccc(NC(=O)NCCCCl)cc3)c2cc1OC"
study_system = "PDGF receptor (Rattus norvegicus)"
measured_quantity = "IC50"
units_symbol = "nM"
result_value = 3

[[record]]
compound = "COc1cc2nccc(Oc3ccc(NC(=O)Nc4ccc(F)cc4F)cc3)c2cc1OC"
study_system = "PDGF receptor (Rattus norvegicus)"
measured_quantity = "IC50"
units_symbol = "nM"
result_value = 3


I = COc1cc2nccc(Oc3ccc(NC(=O)NC(=O)c4ccccc4)cc3)c2cc1OC
II = COc1cc2nccc(Oc3ccc(NC(=O)Nc4cccc(N(C)C)c4)cc3)c2cc1OC
Ask | Which of these two has the smaller recorded IC50: I or II ? Which one? Tell me its label.
Reply | II

====

STUDY_SYSTEM: PDGF receptor (Rattus norvegicus, UniProt Q05030)
Construct: cultured rat mesangial cells which are known to have the PDGF receptor; endogenous in cells
Sequence (Q05030 32-1097): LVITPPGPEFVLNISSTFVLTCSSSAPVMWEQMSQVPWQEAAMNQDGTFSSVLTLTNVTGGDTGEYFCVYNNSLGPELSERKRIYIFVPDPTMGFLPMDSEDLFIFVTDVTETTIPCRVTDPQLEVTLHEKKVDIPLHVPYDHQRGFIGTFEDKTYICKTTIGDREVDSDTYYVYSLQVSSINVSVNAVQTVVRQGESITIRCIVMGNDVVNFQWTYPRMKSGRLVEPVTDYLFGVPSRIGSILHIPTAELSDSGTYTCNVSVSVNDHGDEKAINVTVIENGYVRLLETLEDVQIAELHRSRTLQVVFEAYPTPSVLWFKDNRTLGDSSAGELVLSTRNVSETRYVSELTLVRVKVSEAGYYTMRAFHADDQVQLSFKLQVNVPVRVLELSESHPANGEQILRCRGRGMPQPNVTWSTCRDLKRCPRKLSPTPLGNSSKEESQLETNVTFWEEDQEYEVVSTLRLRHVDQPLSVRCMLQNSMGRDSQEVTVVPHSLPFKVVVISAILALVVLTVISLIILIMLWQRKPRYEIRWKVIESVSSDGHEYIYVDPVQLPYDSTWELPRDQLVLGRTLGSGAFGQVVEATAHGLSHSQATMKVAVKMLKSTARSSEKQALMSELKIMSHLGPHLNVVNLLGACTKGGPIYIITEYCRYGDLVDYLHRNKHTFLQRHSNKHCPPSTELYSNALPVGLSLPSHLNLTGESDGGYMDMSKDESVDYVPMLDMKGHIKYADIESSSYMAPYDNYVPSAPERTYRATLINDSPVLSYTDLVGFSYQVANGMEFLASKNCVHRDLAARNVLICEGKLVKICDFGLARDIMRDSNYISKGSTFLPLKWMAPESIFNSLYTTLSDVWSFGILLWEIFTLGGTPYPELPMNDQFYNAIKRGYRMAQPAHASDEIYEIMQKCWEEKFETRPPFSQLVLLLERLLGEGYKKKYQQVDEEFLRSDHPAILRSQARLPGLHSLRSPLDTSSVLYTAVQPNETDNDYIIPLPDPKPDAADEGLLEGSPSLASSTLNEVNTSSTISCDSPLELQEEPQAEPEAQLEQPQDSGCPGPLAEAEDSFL
TEST_DESCRIPTION: PDGF receptor autophosphorylation inhibition in cultured rat mesangial cells
CONDITION_CONTEXT: PDGF-BB 50 ng/ml
MEASURED_QUANTITY: IC50 (nM)

I = COc1cc2nccc(Oc3ccc(NC(=O)Nc4cccc(C)c4)cc3)c2cc1OC
II = CCCCOc1ccc(C(=O)Nc2ccc(Oc3ccnc4cc(OC)c(OC)cc34)cc2)cc1
Ask | Which of these two has the smaller recorded IC50: I or II ? Which one? Tell me its label.
Reply | I
(I: 3 nM, II: 340 nM)

These measurements were taken from patent US6143764A.
